The values you see were collected from the DeepSol protein solubility set.

Assay Explanation: soluble on expression in E. coli; label from the status in PepcDB or PDB records
Quantity Name: soluble on expression in E. coli

{"columns": ["Record Sequence", "Quantity Name", "Recorded Result"],
 "data": [
  ["HVYAFDIQESAVANTKERLGDMYQARTTLFHKSHDKIAESLPPETHGKVAAAVFNLGYLPGGDKSITTNGSSTIKAIEQLLSIMKDEGLIVLVVYHGHPEGKAEKNDVLEFCRDLDQQTARVLTYGFINQQNDPPFIVAIEKKAQISK", "soluble on expression in E. coli", "not soluble"],
  ["MSQSISLKGSTRTVTEFFEYSINSILYQRGVYPAEDFVTVKKYDLTLLKTHDDELKDYIRKILLQVHRWLLGGKCNQLVLCIVDKDEGEVVERWSFNVQHISGNSNGQDDVVDLNTTQSQIRALIRQITSSVTFLPELTKEGGYTFTVLAYTDADAKVPLEWADSNSKEIPDGEVVQFKTFSTNDHKVGAQVSYKY", "soluble on expression in E. coli", "soluble"],
  ["MNKNKPFIVVIVGPTASGKTELSIELAKRINGEIISGDSMQVYKHMNIGTAKVTPEEMDGIPHHLIDILNPDDTFSAYEFKRLAEDLITDITNRGKVPIIAGGTGLYIQSLIYNYELEDETVTPAQLSIVKQKLSALEHLDNQQLHDYLAQFDAVSAENIHPNNRQRVLRAIEYYLKTKKLLSNRKKVQQFTENYDTLLLGIEMSRKTLYSRINKRVDIMLDHGLFREVQQLVEQGYESCQSMQAIGYKELIPVINGQMIYEDAVNDLKQHSRQYAKRQMTWFKNKMSVHWLDKENMSLQMMLDEITTQIKLEHHHHHH", "soluble on expression in E. coli", "soluble"],
  ["MDIKNWSVYNKLYVGGGISDDVQTNTSETYDKEKDCWTLDNGHLVPHNYIMYKCEPVKHRYPLEKTQYTNDFLKYLESFIGS", "soluble on expression in E. coli", "not soluble"],
  ["MKKLTFEQLRSVQMSILDRVHLFCERHDLEYSLAGGTLLGAIRHKGYIPWDDDIDIMMPREDYEYLLQNFAKEYPDFTFFNLDTKHNPYPFLFSKLSLNDSVISNGRIKGVGINIDIFPIDSLGKEKGAAKLRFSLMKAINFFARIQRSRHDRANPIVNIAFRLFQKCLKLLPKKWFLSAIKGLCSTCSVNDDGYAVSIGSSYLAKEFTESSLYHDYTSCPFEDRQYKCIARYDDYLSMIYGDYMQLPKEQDRENHDNVGFIKEHLLPMLEHHHHHH", "soluble on expression in E. coli", "not soluble"],
  ["AIAAKDILGEAGLHFDELNKLRVLDPEVTQQTIELKEECKDFVDKIGQFQKIVGGLIELVDQLAKEAENEKMKAIGARNLLKSIAKQREAQQQQLQALIAEKKMQLERYRVEYEALCKVEAEQNEFIDQFIFQK", "soluble on expression in E. coli", "soluble"],
  ["GPLGSLYAIVLYDFKAEKADELTTYVGENLFICAHHNCEWFIAKPIGRLGGPGLVPVGFVSIIDIATGYATGNDVIEDIKSVNLPTVQEWKSNIARYKASNISLGSVE", "soluble on expression in E. coli", "soluble"],
  ["MKDNLKEARRYLNNAKEMLSQKAKKEGKFYQDKKYIRLAGHAAYSGVLIALDNVLGNKDSGRKSVDWYKSELAKLDKKALTAFNGAYETLHLAMSYDGNIVANVSKSGIELADSIITWAETRTAAA", "soluble on expression in E. coli", "not soluble"],
  ["MKRSEKKSMSSALKNGIMERTQPEKVVQMQGTADLSTSKLGTKKYWDELYALELENFRRNPQDTGDCWFSDSDAEQKMIDFLVDNIGAYRISENASVVDLGTGNGHMLFELHQTEFQGKLVGIDYSEESVKLASNIAEATGVDNFISFQQADIFSGDWKPGKYDIVLDKGTLDAISLSGMKINGKLDVVDVYAGVVERILKKDGIFLITSCNFTQDELVKIIETDNLKMWKTIKYPVFQFGGVQGATICSVAFVKQN", "soluble on expression in E. coli", "soluble"],
  ["DFGKAMYIDNPRDHAVKHFSKVYQCQSADDVQAVKKKLYDDKTAIIEKVAEQTKSFDVASTQVSGRSLKGSIDVPTLPALPQPETRQGAPKLSVLISSAQEAMLCEYQDIDVYYQLPMGLSGELSAMIELFQANPMLKPWFPAILIGEDYQAARVFLETIQPELLITNNSGVGMITKELGLGWVAGPQMNTVNSYAFKCLQDEFAASGAFVSNELNMKQMRHIKRPKNMRSFYSIYHPNTLLTSRQCLFQQTEGCRKVKVNKGCLKRCDKRTSIINLKDNPYVVQKQKGSHNSIYSEHNVLNLQVLHDLPQLFTDVLIDLRDIQTETKVSASKPELIDAFLALLEDHSEQAIQTLNAMIQPTANAQYLKGL", "soluble on expression in E. coli", "not soluble"]
]}

Reported soluble on expression in E. coli ( GKGLGRRVLSINEIVGYDAVNQAFNFMDIFKWDPATDTFKFTGKNNSYLLEHKIAPRMGIPETQVRKIYSELDRRSKILRKIHQANITNFYDLFTTLIQLEEAGVIS ) = not soluble

Reported soluble on expression in E. coli ( MSLNVNFFVTCIGDALKSRMARDSVLLLEKLGCRVNFPEKQGCCGQPAINSGYIKEAIPGMKNLIAALEDNDDPIISPAGSCTYAVKSYPTYLADEPEWASRAEKVAARMQDLTSFIVNTLGVVDVGASLQGRAVYHPSCSLARKLGVKDEPLTLLKNVRGLELLTFAEQDTCCGFGGTFSVKMAEISGEMVKEKVAHLMEVRPEYLIGADVSCLLNISGRLQREGQKVKVMHIAEVLMSREGHHHHHH ) = not soluble

Reported soluble on expression in E. coli ( SLFKVGKVSYLNTLPLFYSLEGFEVVEGVPSELVEKLRRGEIHAGIVSSVEYFFNPQDYFILSGISISSRGSVCSVKLFSNEPMEKIREVNITKASLTSRELLFYLFEKKFGFVPKESEEAQAKLLIGDEAMEQKGYKFVYDLGEEWFKLHGLPFVFALFLVKRDADISKAKFLKKEIKKSVKNFFEEGIKNIKNKEYFKNCLDYSLGGEHIKSLINFYAYLSRKFKKQVPKLKFVL ) = soluble

Reported soluble on expression in E. coli ( EKVIIEKAAGDAEAIAFDGRTYMEYHNAVTKSPDALDYPAEPSEKALQSNHFELSIKTEATQGLILWSGKGLERSDYIALAIVDGFVQMMYDLGSKPVVLRSTVPINTNHWTHIKAYRVQREGSLQVGNEAPITGSSPLGATQLDTDGALWLGGMERLSVAHKLPKAYSTGFIGCIRDVIVDRQELHLVEDALNNPTILHCSAK ) = soluble
